- assay_protocol: Cynomolgus monkeys: body and organ weights (Example 29)
- Format: in vivo
- condition_summary: escalating doses 5, 10, 25 mg/kg s.c., day 57
In the oligonucleotide strings, read from the 5' end, every base follows the letter of its sugar. An asterisk marks phosphorothioate; unmarked linkages are phosphodiester. Other units and linkages are bracketed, terminal groups are in braces. A string of capitals states the bases alone. e = 2'-O-(2-methoxyethyl) (MOE); [5mC] = 5-methylcytosine; d = 2'-deoxy (DNA)
The entries below are paired with their reported Body weight.
The reply should be a number in g, with the unit left off.

Before answering, review these 4 worked examples.
substance	Body weight (g)
ISIS 416850: gapmer of Table 8 (antisense eT*eG*e[5mC]*eA*e[5mC]*dA*dG*dT*dT*dT*d[5mC]*dT*dG*dG*d[5mC]*eA*eG*eG*e[5mC]*e[5mC])	2629
ISIS 416858: gapmer of Table 8 (antisense eA*e[5mC]*eG*eG*e[5mC]*dA*dT*dT*dG*dG*dT*dG*d[5mC]*dA*d[5mC]*eA*eG*eT*eT*eT)	2617
ISIS 417002: gapmer of Table 8 (antisense eG*eG*dT*dG*d[5mC]*dA*d[5mC]*dA*dG*dT*dT*dT*d[5mC]*dT*dG*eG*e[5mC]*eA*eG*eG)	2654
ISIS 416838: gapmer of Table 6 (antisense eG*e[5mC]*eA*eA*e[5mC]*d[5mC]*dG*dG*dG*dA*dT*dG*dA*dT*dG*eA*eG*eT*eG*e[5mC])	2737

Now for the substance whose Body weight we want.
(Q) Dear colleague, please send me the reported Body weight for ISIS 416864: gapmer of Table 8 (antisense eG*eG*e[5mC]*eA*eG*d[5mC]*dG*dG*dA*d[5mC]*dG*dG*d[5mC]*dA*dT*eT*eG*eG*eT*eG) when you can.
(A) 3387
